Target: NADPH oxidase 5 (Homo sapiens)
Test: NOX5-dependent H2O2 signal modulators, primary screen, NOX inhibitor project, cell-based, HEK293-NOX5, Amplex Red fluorescence (AID 1161)
Conditions: HEK293-NOX5, ionomycin, 45 min, higher = more signal
Provide the recorded z-score for the entries that follow.

Examples with answers:
MOLECULE	z-score
C=CCC(OC(C)=O)[C@@H]1[C@@H](N(Cc2cccc3ccccc23)C(=O)Cc2ccc(F)cc2)c2cc(OCCCO)ccc2N1C(=O)c1ccc(-c2ccccc2)cc1 (stereo partly drawn)	1.77
COCCOC(=O)N1C(=O)[C@@]2(c3cc(C#CCC(C(=O)OC)C(=O)OC)ccc31)[C@H](C(=O)NC[C@H](O)c1ccccc1)[C@H]1C(=O)O[C@H](c3ccccc3)[C@H](c3ccccc3)N1[C@@H]2c1ccc(O)cc1	1.84

Now consider the entry below.
Reported z-score of `C=C[C@@H](OC)[C@H](OC(=O)Nc1ccc(OC)cc1)c1ccc(OC)c(O)c1` : -1.2

###

System: Neuregulin-1 EGF-like domain
Experiment: binders of neuregulin-1 EGF-like domain, primary screen, biochemical, small-molecule microarray, 635 nm fluorescence (AID 1081);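 also: binding of the protein to compounds printed on small-molecule microarray slides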
Conditions: small-molecule microarray binding, higher = more signal
Give measured composite z-score for each item. Keep answers brief.
Answers are plain numbers.

COMPOUND	composite z-score
C=C/C=C/[C@@H]1C(=C)CN([C@@H](Cc2ccccc2)C(=O)OC)[C@H]1[C@@H](O)Cc1ccccc1	1
O=C(NCC(O)CO)[C@@]1(CCS(=O)(=O)c2ccccc2)COC(c2ccc(OCCCO)cc2)=N1 (stereo not given in full)	1.41

Required: composite z-score, one value per compound below.
1. O=C1O[C@H](c2ccccc2)[C@H](c2ccccc2)N2[C@H]1[C@@H](C(=O)N1CCCCCCC1)[C@]1(C(=O)Nc3ccc(C#CC4(O)CCCCCC4)cc31)[C@H]2c1ccccc1OCCO
2. C=C(C)[C@@H]1CC=C(C(O)C2C=CC3C(=O)N(c4ccccc4)C(=O)C3N2Nc2ccc(C#N)cc2)CC1 (stereo not given in full)
3. CC(C)CNC(=O)[C@@]1(C)c2ccccc2C(=O)N(Cc2cc(C(F)(F)F)cc(C(F)(F)F)c2)[C@H]1c1ccc(CO)cc1
4. O=C1C2C=CC(C(O)C=Cc3ccc([N+](=O)[O-])cc3)N(Nc3ccccc3)C2C(=O)N1c1ccccc1 (stereo not given)
5. COCCOC(=O)N1C(=O)[C@@]2(c3cc(C#CC4(O)CCCCCC4)ccc31)[C@H](C(=O)N1CCN(c3ncccn3)CC1)[C@H]1C(=O)O[C@H](c3ccccc3)[C@H](c3ccccc3)N1[C@@H]2c1ccccc1OCCO

[1.33, 1.33, 0.492, 0.967, 1.05]

# map each compound to its composite z-score
1. CCCNC(=O)[C@@]1(Sc2ccc(C)cc2)CC(=O)N(C(C)C)[C@@H]1c1ccc(CO)cc1I
2. COc1cc(C(O)C2C=CC3C(=O)N(Cc4ccccc4)C(=O)C3N2n2cnnc2)cc(OC)c1OC (stereo not given)
3. CCCCCN1CC=CC23O[C@@H]4/C=C\CCC(C)OC(=O)C4[C@H]2C(=O)N(CCCCCCO)[C@@H]3C1=O (stereo not given in full)
4. CC(C)C(=C=CC[C@H](O)c1cccc(OCCO)c1)CCO
5. CCOC(=O)C[C@H]1[C@H](OC(=O)c2ccc(-c3ccccc3)cc2)[C@@H](NC(=O)CC(C)C)c2cc(OCCCO)ccc2N1C(=O)c1ccccc1
6. CC(C)[C@H]1NC(=O)[C@@]23C(=O)N[C@@H](Cc4ccccc4)C2[C@H](C)[C@@]2(C)O[C@H]2C3/C=C/C/C=C\CNC(=O)[C@H](Cc2ccccc2)NC1=O (stereo not given in full)
7. CCOC(=O)C[C@H]1[C@H](OC(=O)c2ccccc2-c2ccccc2)[C@@H](NC(=O)c2ccc3ccccc3n2)c2cc(OCCCO)ccc2N1C(=O)c1ccccc1

1. -0.0039
2. 1.14
3. 1.4
4. -0.403
5. 0.648
6. 0.957
7. 0.666

Consider `C=C(CCCC)C(=O)CC[C@H](OC(=O)c1ccccc1-c1ccccc1C(=O)O)c1ccccc1OCCO` . Its measured composite z-score is 1.07
